test system: UO-31 renal; test: NCI tumour cell line growth inhibition, 48 h
endpoint: GI50

compound: O=C1OCc2c1cc1ccc(O)c(OC3OC(CO)C(O)C(O)C3O)c1c2-c1ccc2c(c1)OCO2 (centres undefined)
reported: 27200 nM

(Q) Dear colleague, I am looking for the recorded GI50 of the following compound: COc1ccc2[nH]c(O)c(/C=c3/cc4c(c(-c5cc(OC)c(OC)c(OC)c5)n3)=Nc3ccccc3-4)c2c1
(A) 6620 nM

(Q) Now give it for CSc1ccc(C2=NN(C(C)=O)C(c3cc(C)cs3)C2)cc1 (centres undefined) too.
(A) 19900 nM

---

system: HL-60(TB) leukemia; test: NCI tumour cell line growth inhibition, 48 h
As shown below, each of these compounds has a reported TGI value.

Would you please look over these solved cases?
compound: COc1ccccc1N/C(=C\C(=O)C(=O)NC12CC3CC(CC(C3)C1)C2)c1ccccc1
TGI: > 10 µM
//
compound: COc1cc2c(cc1OC)C1=Cc3cc(OC)c(OC)cc3C(C)N1C=C2 (centres undefined)
TGI: > 100 µM
//
compound: COC(=O)CCCCN=Cc1c(O)c(O)c(C(C)C)c2cc(C)c(-c3c(C)cc4c(C(C)C)c(O)c(O)c(C=NCCCCC(=O)OC)c4c3O)c(O)c12
TGI: 22.8 µM

Continue with the compound presented below.
(Q) What value of measured TGI is listed for CCOP(=O)(OCC)/C(C#N)=C/c1cnc(-c2ccccc2)[nH]1 ?
(A) > 100 µM

---

tested on: EKVX NSCLC; test: NCI tumour cell line growth inhibition, 48 h
The compounds listed here are annotated with their GI50.

Some solved cases for reference:
compound: COC(=O)CCCCN=Cc1c(O)c(O)c(C(C)C)c2cc(C)c(-c3c(C)cc4c(C(C)C)c(O)c(O)c(C=NCCCCC(=O)OC)c4c3O)c(O)c12
reported: 0.924 µM
//
compound: CC(C)CC(=O)[O-].CC(C)CC(=O)[O-].N.N.N.N.[Co+3].[O-][Cl+3]([O-])([O-])[O-]
reported: > 100 µM
//
compound: Cc1nn(CN2CCN(C)CC2)c(=S)n1/N=C/c1cccc2ccccc12
reported: 31.8 µM

(Q) Returns the measured GI50 for the input compound. Input: NCC(=O)NS(=O)(=O)OC[C@H]1O[C@@H](n2cnc3c(N)ncnc32)[C@H](O)[C@@H]1O
(A) 2.58 µM

(Q) Here is the next compound: COC(=O)c1cc2c3ccccc3[nH]c2c2ncccc12
(A) 11.5 µM

(Q) Now give it for O=[N+]([O-])/C=C\c1ccc(Cl)c(Cl)c1 too.
(A) 4.01 µM

(Q) Same read-out for O=C(c1ccco1)c1nc2ccc(C(F)(F)F)cc2[n+]([O-])c1C(F)(F)F ?
(A) 12.9 µM

(Q) # iterate: Cn1c(N2NC(=O)C(N=Nc3ccc(S(N)(=O)=O)cc3)C2=O)nc(-c2ccco2)c(C#N)c1=O (stereo not given)
(A) 35.7 µM

(Q) Again, but for O=C1c2c(c3c4ccccc4n(CCCCCCBr)c3c3[nH]c4ccccc4c23)C(=O)N1O
(A) 2.58 µM

(Q) Now consider Cc1cc(I)cc(CNCCCN2CCSCC2)c1O and answer again.
(A) 19.1 µM

---

tested on: OVCAR-3 ovarian; assay: NCI tumour cell line growth inhibition, 48 h; in the data active = GI50 below about 0.43 µM; inactive = the rest
Output constraint: value belongs to 1 = active, -1 = inactive

molecule: COC(=O)c1cc2c3ccccc3[nH]c2c2ncccc12
testedTarget: OVCAR-3 ovarian
group: -1
//
molecule: COc1cc(/C=C/c2cc(/C=C/c3ccc(O)c(OC)c3)n(-c3ccccc3)n2)ccc1O
testedTarget: OVCAR-3 ovarian
group: 1
//
molecule: COC(=O)CCCCN=Cc1c(O)c(O)c(C(C)C)c2cc(C)c(-c3c(C)cc4c(C(C)C)c(O)c(O)c(C=NCCCCC(=O)OC)c4c3O)c(O)c12
testedTarget: OVCAR-3 ovarian
group: -1
//
molecule: CCOc1cccc(/C=N/NC(=O)c2ccccc2Nc2ccnc(C(F)(F)F)c2)c1O
testedTarget: OVCAR-3 ovarian
group: 1
//
molecule: CC1=C(CCCNS(C)(=O)=O)C2=C(C)C3(CC3)[C@@](C)(O)C(=O)C2=C1
testedTarget: OVCAR-3 ovarian
group: -1
//
molecule: C=C(CN1CCc2ccccc2C1)c1ccc(C(=O)Nc2cnccn2)cc1
testedTarget: OVCAR-3 ovarian
group: -1
//
molecule: CC1=C(C(=O)Nc2ccc3[nH]ncc3c2)C(c2ccc3ccccc3c2)CC(=O)N1 (stereo not given)
testedTarget: OVCAR-3 ovarian
group: -1
//
molecule: N#C/C(=C1C=C/C(=N/O)C(Br)=C/1)c1ccccc1
testedTarget: OVCAR-3 ovarian
group: -1

(Q) Please indicate how the test categorized O=C1/C(=C/c2ccc(Br)cc2)C=C(c2ccccc2)N1CCc1ccccc1 .
(A) -1

(Q) // same read-out, input: CSc1ccc(C2=NN(C(C)=O)C(c3cc(C)cs3)C2)cc1 (stereo not given)
(A) -1
